Test: in vivo
Parameters: species or system Yorkshire piglets
Details: Yorkshire, pig
measurement kind: concentration at 19 h

Complete the entry with concentration at 19 h for CO/N=C(\C(=O)N[C@@H]1C(=O)N2C(C(=O)O)=C(CSc3nc(=O)c(=O)[nH]n3C)CS[C@H]12)c1csc(N)n1
< 500 ng/mL
